PROTOCOL_SUMMARY: Inhibition of full length GST-tagged mouse B-Raf V600E mutant-mediated MEK1 phosphorylation after 1 hr by gel electrophoresis
MEASURED_PARAMETER: IC50

1. COc1ccc(C2CC(c3ccc(Br)cc3)=NN2C(=O)c2ccc3c(c2)OCCO3)cc1 (stereo not drawn)
4.75 µM
2. COc1ccc(C2=NN(C(=O)c3ccc4c(c3)OCCO4)C(c3ccccc3)C2)cc1 (stereo not drawn)
1.97 µM
3. COc1ccc(C2CC(c3ccccc3)=NN2C(=O)C2COc3ccccc3O2)cc1 (stereo not drawn)
4.01 µM
4. O=C(c1ccc2c(c1)OCCO2)N1N=C(c2ccc(Br)cc2)CC1c1ccccc1F (stereo not drawn)
0.11 µM
5. O=C(C1COc2ccccc2O1)N1N=C(c2ccc(Br)cc2)CC1c1cccc(F)c1 (stereo not drawn)
5.9 µM
6. O=C(c1ccc2c(c1)OCCO2)N1N=C(c2ccccc2)CC1c1ccccc1F (stereo not drawn)
2.13 µM
7. O=C(c1ccc2c(c1)OCCO2)N1N=C(c2ccc(Br)cc2)CC1c1ccc(F)cc1 (stereo not drawn)
2.71 µM
8. COc1ccc(C2=NN(C(=O)C3COc4ccccc4O3)C(c3ccccc3)C2)cc1 (stereo not drawn)
5.27 µM
